pKd: −log10 of the molar value.
A compilation of published pKd results with Epidermal growth factor receptor (Homo sapiens, UniProt P00533).

Param readout= pKd; system= Epidermal growth factor receptor (Homo sapiens, UniProt P00533); entry= COc1cccc(-c2cc3c(Sc4ccc(C)cc4)ncnc3[nH]2)c1 ; returns value. > 7.00

Check COc1ccc(C(C)Nc2ncnc3[nH]c(-c4ccc(O)cc4)cc23)cc1 (stereo not shown) too. 5.00 to 6.00

How about Clc1ccc(Sc2ncnc3c2[nH]c2ccccc23)cc1 ? > 7.00

Next up: C=CC(=O)Nc1cc(Nc2nccc(-c3cn(C)c4ccccc34)n2)c(OC)cc1N(C)CCN(C)CCCON(C)C(=O)N1N=C(c2cc(F)ccc2F)S[C@@]1(CCCN)c1ccccc1 5.60 to 6.30

Also need Oc1ccc(-c2cc3c(Sc4ccccc4)ncnc3[nH]2)cc1 , thanks. > 7.00

Check Cc1cccc(CNc2ncnc3[nH]c(-c4ccc(O)cc4)cc23)c1 too. > 7.00

Try the compound Oc1ccc(-c2cc3c(Oc4cccc(Br)c4)ncnc3[nH]2)cc1 > 7.00

Follow-up item: CCC1C(=O)N(C)c2cnc(Nc3ccc(C(=O)NCCOCCOCCOCCOCCN(C)CC=CC(=O)NC4CN(c5nc(Nc6cn(C)nc6OC)c6ncn(C)c6n5)CC4F)cc3OC)nc2N1C1CCCC1 (stereo not shown) 5.60 to 6.30

C=CC(=O)Nc1cc(Nc2nccc(-c3cn(C)c4ccccc34)n2)c(OC)cc1N(C)CCN(C)CCOCCOCCNS(=O)(=O)c1ccc(Nc2ncc(Br)c(Nc3cccc(F)c3C(N)=O)n2)cc1 ? > 7.30

Entry to check: COc1ccc(-c2cc3c(Nc4cccc(C(F)(F)F)c4)ncnc3[nH]2)cc1 > 7.00

# repeat for COc1ccc(-c2cc3c(Sc4ccc(C)cc4)ncnc3[nH]2)cc1 > 7.00

For Cc1ccc(Sc2ncnc3c2[nH]c2ccccc23)cc1 then? > 7.00

Follow-up item: COc1cccc(-c2cc3c(NCc4ccccc4)ncnc3[nH]2)c1 > 7.00

Quick one: C=CC(=O)Nc1cc(Nc2nccc(-c3cn(C)c4ccccc34)n2)c(OC)cc1N(C)CCN(C)CCOCCOCCOCCOCCNC(=O)c1ccc(Nc2ncc3c(n2)N(C2CCCC2)[C@H](CC)C(=O)N3C)c(OC)c1 5.60 to 6.30

Field entry: O=C(O)c1cccc(Nc2ncnc3[nH]cnc23)c1 < 5.00

Queued: COc1cccc(-c2cc3c(NCc4cccc(C)c4)ncnc3[nH]2)c1 6.00 to 7.00
